Data provenance: paper PMC6321168

- assay remarks: Fecal excretion study in rats after oral NS, SF or CNS (LC–MS/MS)
- Format: in vivo
- condition context: rat feces, oral CNS 110 mg/kg, 12 h
attribute measured: Accumulative excretion amount (µg)
Return type: number; implicit unit µg.

Lab note: CC(C)=CCC[C@](C)(O[C@@H]1O[C@H](CO[C@@H]2O[C@H](CO)[C@@H](O)[C@H](O)[C@H]2O)[C@@H](O)[C@H](O)[C@H]1O)[C@H]1CC[C@]2(C)[C@@H]1[C@H](O)C[C@@H]1[C@@]3(C)CC[C@H](O[C@@H]4O[C@H](CO)[C@@H](O)[C@H](O)[C@H]4O[C@@H]4O[C@H](CO)[C@@H](O)[C@H](O)[C@H]4O)C(C)(C)[C@@H]3CC[C@]12C [ginsenoside Rb1] gave Accumulative excretion amount of 36.062

Accumulative excretion amount measured on CC(C)=CCC[C@](C)(O[C@@H]1O[C@H](CO)[C@@H](O)[C@H](O)[C@H]1O)[C@H]1CC[C@]2(C)[C@@H]1[C@H](O)C[C@@H]1[C@@]3(C)CC[C@H](O)C(C)(C)[C@@H]3[C@@H](O[C@@H]3O[C@H](CO)[C@@H](O)[C@H](O)[C@H]3O[C@@H]3O[C@@H](C)[C@H](O)[C@@H](O)[C@H]3O)C[C@]12C [ginsenoside Re] = 9.675

Per the records, this compound ( CC(C)=CCC[C@](C)(O[C@@H]1O[C@H](CO)[C@@H](O)[C@H](O)[C@H]1O)[C@H]1CC[C@]2(C)[C@@H]1[C@H](O)C[C@@H]1[C@@]3(C)CC[C@H](O)C(C)(C)[C@@H]3[C@@H](O[C@@H]3O[C@H](CO)[C@@H](O)[C@H](O)[C@H]3O)C[C@]12C [ginsenoside Rg1] ) has Accumulative excretion amount equal to 56.860

So, CC(C)=CCC[C@](C)(O[C@@H]1O[C@H](CO)[C@@H](O)[C@H](O)[C@H]1O)[C@H]1CC[C@]2(C)[C@@H]1[C@H](O)C[C@@H]1[C@@]3(C)CC[C@H](O[C@@H]4O[C@H](CO)[C@@H](O)[C@H](O)[C@H]4O[C@@H]4O[C@H](CO)[C@@H](O)[C@H](O)[C@H]4O)C(C)(C)[C@@H]3CC[C@]12C [ginsenoside Rd] ? Its Accumulative excretion amount was 9.145
